# Tested on: Alternaria alternata
# PROTOCOL DETAILS: Antifungal activity against Alternaria alternata Keissler assessed as inhibition of mycelium growth at 100 ug/ml after 48 hrs
# Type: functional
# COND: read-out: GI
PARAMETER MEASURED: inhibition of growth at 100 µg/mL (%)
Please respond with the number in % and leave the unit unwritten.

MOLECULE	VALUE UNITS	inhibition of growth at 100 µg/mL
CC1COC(Cn2cncn2)(c2ccc(Oc3ccc(Cl)cc3)cc2Cl)O1 (centres undefined)	%	100

QUERY: inhibition of growth at 100 µg/mL for `Cc1ncc(Cn2cc(COc3ccc(Cl)cc3)nn2)c(N)n1` ?
RESULT: 52

QUERY: One more molecule: `Cc1ncc(Cn2nnc(COc3ccccc3)c2I)c(N)n1`
RESULT: 23

QUERY: One more molecule: `Cc1ncc(Cn2cc(COc3ccc([N+](=O)[O-])cc3)nn2)c(N)n1`
RESULT: 33

QUERY: One more molecule: `Cc1ncc(Cn2cc(COc3ccc([N+](=O)[O-])cc3Cl)nn2)c(N)n1`
RESULT: 36

QUERY: One more molecule: `Cc1ncc(Cn2cc(COc3ccccc3)nn2)c(N)n1`
RESULT: 43

QUERY: One more molecule: `Cc1ncc(Cn2cc(COc3ccc([N+](=O)[O-])cc3[N+](=O)[O-])nn2)c(N)n1`
RESULT: 0

QUERY: One more molecule: `Cc1ncc(Cn2nnc(COc3ccc([N+](=O)[O-])cc3)c2I)c(N)n1`
RESULT: 59

QUERY: One more molecule: `Cc1ncc(Cn2cc(COc3ccc(C(=O)O)cc3)nn2)c(N)n1`
RESULT: 57
